# TARGET SYSTEM: Cytochrome P450 1A2 (Homo sapiens) (UniProt P05177)
# Sequence (P05177 whole entry, looked up): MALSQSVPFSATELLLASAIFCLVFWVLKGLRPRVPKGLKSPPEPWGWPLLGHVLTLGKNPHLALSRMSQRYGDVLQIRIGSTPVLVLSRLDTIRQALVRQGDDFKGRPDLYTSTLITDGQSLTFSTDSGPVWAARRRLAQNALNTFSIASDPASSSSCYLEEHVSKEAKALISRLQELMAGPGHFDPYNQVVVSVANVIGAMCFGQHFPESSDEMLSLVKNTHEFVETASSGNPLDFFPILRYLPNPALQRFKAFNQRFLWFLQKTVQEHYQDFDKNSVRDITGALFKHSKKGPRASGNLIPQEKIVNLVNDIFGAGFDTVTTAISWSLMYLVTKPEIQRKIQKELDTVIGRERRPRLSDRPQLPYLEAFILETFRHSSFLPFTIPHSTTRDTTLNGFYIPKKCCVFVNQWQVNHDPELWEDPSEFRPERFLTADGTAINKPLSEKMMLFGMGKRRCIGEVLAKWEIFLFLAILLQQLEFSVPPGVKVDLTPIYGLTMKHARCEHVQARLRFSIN
# ASSAY PROCEDURE: Cytochrome panel assay with activity outcomes
# CONDITION PARAMETERS: recombinant CYP, pro-luciferin dealkylation, luminescence, p450-cyp1a2; series mostly up to 57.1 µM
# Procedure: The P450 gene superfamily is involved in the metabolism and clearance of xenobiotics. This assay used various human CYP P450 isozymes to measure the dealkylation of various pro-luciferin substrates to luciferin. The luciferin is then measured by luminescence after the addition of a luciferase detection reagent. […] Inhibitors and some substrates limit the production of luciferin, and decrease measured luminescence. […] 8, Detection, 1 sec, ViewLux luminescent read […]
About 5,700 (36%) of roughly 16,000 compounds were called active. Roughly 24% stayed inconclusive and do not appear here. Some of the results follow.
RESULT TYPE: AC50

In the examples that follow, each entry is paired with its recorded AC50.
Cc1ccn2c(NC(=O)c3ccccc3)c(-c3cccs3)nc2c1 ... 22.4 µM (active)
COc1ccc(CNc2ncncc2-c2ccccc2C(F)(F)F)c(OC)c1 ... 15.8 µM (active)
CCc1n[nH]c(=S)n1/N=C/c1ccc2c(c1)OCO2 ... 2.24 µM (active)
CCOC(=S)NC(=O)c1sc2ccccc2c1Cl ... 1.58 µM (active)
CCOC(=O)CSc1n[nH]c(NC(=O)c2cccc(C)c2)n1 ... 15.8 µM (active)
O=C(c1csnn1)N1CCC2(CC1)CN(C(c1ccccc1)c1ccccc1)C2 ... inactive
CCC(C)N1C(=O)C2C(C(=O)Nc3cccc(OC)c3)C3C=CC2(O3)C1C(=O)NC1CCCCC1C (stereo not drawn) ... inactive
O=C(c1sc2ccccc2c1Cl)N(Cc1ccccc1)C1CCS(=O)(=O)C1 (stereo not drawn) ... inactive

Entry COC(=O)CN1C(=O)S/C(=C/c2ccc(N3CCCCC3)o2)C1=O , system Cytochrome P450 1A2 (Homo sapiens) (UniProt P05177): what AC50 was measured?
0.891 µM (active)

Entry Cn1c(N/N=C/c2c[nH]c3ccccc23)nc2ccccc21 , system Cytochrome P450 1A2 (Homo sapiens) (UniProt P05177): what AC50 was measured?
1 µM (active)

====

# TARGET SYSTEM: Cytochrome P450 1A2 (Homo sapiens) (UniProt P05177)
# ASSAY PROCEDURE: Cytochrome panel assay with activity outcomes
# CONDITION PARAMETERS: recombinant CYP, pro-luciferin dealkylation, luminescence, p450-cyp1a2; series mostly up to 57.1 µM
# Description: The P450 gene superfamily is involved in the metabolism and clearance of xenobiotics. This assay used various human CYP P450 isozymes to measure the dealkylation of various pro-luciferin substrates to luciferin. The luciferin is then measured by luminescence after the addition of a luciferase detection reagent. […] Inhibitors and some substrates limit the production of luciferin, and decrease measured luminescence. […] 8, Detection, 1 sec, ViewLux luminescent read […]
About 5,700 (36%) of roughly 16,000 compounds were called active. Inconclusive results (about 24%) are left out. The call rests on the fitted dose curve; in most records, active means well fitted curve in the direction sought with a large enough effect; inconclusive means small, poorly fitted or top-dose-only effect, or effect the other way; inactive means no such curve, though single readings can be large or run the other way. Some of the results follow.
Lab note: assign the record to one of active, inactive

Please review the following examples before continuing.
COc1ccccc1-c1nccc(NCc2cnc(C)cn2)n1 ... active
CN(C)CCO[C@](C)(c1ccccc1)c1ccccn1 ... inactive
O=C(Cc1ccccc1)NC1CCN(S(=O)(=O)c2ccc(C(=O)O)cc2)CC1 ... inactive
O=C(CSc1ccc(Cl)cc1)Nc1ccc(N2CCN(C(=O)c3ccc(Cl)cc3)CC2)cc1 ... inactive
Cc1cnc(CNc2ccnc(-c3ccccc3C)n2)cn1 ... active

Okay, now this compound:
Tell me the recorded outcome of this test for O=C(CSC1=NCCS1)N1CCN(c2ccc(Cl)cc2)CC1 .
active
